Test system: U251 human glioblastoma cell line
Assay: in vitro FM-HCR assay of MGMT activity (mPlum O^6MeG reporter plasmid)
Assay type: cell-based
Conditions: MGMT activity (a.u.) in O^6BG divided by DMSO x 100; higher values indicate resistance
METRIC: Relative MGMT activity (%)
Answer with a number only, understood to be in %.

Some solved entries appear below for comparison.
L33W: MGMT polypeptide with mutation L33W (protein) MDKDCEMKRTTLDSPLGKLELSGCEQGLHEIKWLGKGTSAADAVEVPAPAAVLGGPEPLMQCTAWLNAYFHQPEAIEEFPVPALHHPVFQQESFTRQVLWKLLKVVKFGEVISYQQLAALAGNPKAARAVGGAMRGNPVPILIPCHRVVCSSGAVGNYSGGLAVKEWLLAHEGHRLGKPGLGGSSGLAGAWLKGAGATSGSPPAGRN :: 24.9
L33P: MGMT polypeptide with mutation L33P (protein) MDKDCEMKRTTLDSPLGKLELSGCEQGLHEIKPLGKGTSAADAVEVPAPAAVLGGPEPLMQCTAWLNAYFHQPEAIEEFPVPALHHPVFQQESFTRQVLWKLLKVVKFGEVISYQQLAALAGNPKAARAVGGAMRGNPVPILIPCHRVVCSSGAVGNYSGGLAVKEWLLAHEGHRLGKPGLGGSSGLAGAWLKGAGATSGSPPAGRN :: 22.6

From here, focus on the item given below.
# Relative MGMT activity (%) (molecule: G160E: MGMT polypeptide with mutation G160E (protein) MDKDCEMKRTTLDSPLGKLELSGCEQGLHEIKLLGKGTSAADAVEVPAPAAVLGGPEPLMQCTAWLNAYFHQPEAIEEFPVPALHHPVFQQESFTRQVLWKLLKVVKFGEVISYQQLAALAGNPKAARAVGGAMRGNPVPILIPCHRVVCSSGAVGNYSEGLAVKEWLLAHEGHRLGKPGLGGSSGLAGAWLKGAGATSGSPPAGRN ) is 24.1

Values from patent US20250135039A1
